Assay: Caspase-3/7 induction in CHO-K1 cells by small molecules, qHTS cell viability counter screen (AID 1346979); also: nearly all actives have a fitted effect of over 35% in size
Conditions: CellTiter-Fluor fluorescence, 17 h; series mostly up to 92.4 µM
Inconclusive results are not listed. Calls of active or inactive are those of the source. Calls follow the shape of the dose curve; as a rule, active = well fitted cell-killing curve with a large enough effect in the repeat runs; inconclusive = weak or mixed curves, or effect the other way; inactive = no such curve, though single readings can be large or run the other way.
Possible outcomes: True (active), False (inactive)

Molecule: CCOC(=O)[C@H](O)[C@@H](O)C(=O)OCC
Assigned category: False

Molecule: CC/C=C(\C)C=O
Assigned category: False

Molecule: CCCC(=O)c1cc(O)c(O)cc1O
Assigned category: True

Molecule: C[C@H]1O[C@@H](O[C@H]2CC[C@@]3(C)[C@H](CC[C@@H]4[C@@H]3C[C@@H](O)[C@]3(C)[C@@H](C5=CC(=O)OC5)CC[C@]43O)C2)C[C@H](O)[C@@H]1O[C@H]1C[C@H](O)[C@H](O[C@H]2C[C@H](O)[C@H](O[C@@H]3O[C@H](CO)[C@@H](O)[C@H](O)[C@H]3O)[C@@H](C)O2)[C@@H](C)O1
Assigned category: False

Molecule: O=C(CCN1CCC(c2ccccc2)C1)c1ccc2c(c1)OCCO2 (stereo not given)
Assigned category: True

Molecule: Nc1ccc(N)c([N+](=O)[O-])c1
Assigned category: True

Molecule: ClC(c1ccccc1)(c1ccccc1)c1ccccc1
Assigned category: False

Molecule: CCCCCCCCCCCCCCCCC(C(=O)O)C(O)(CC(=O)O)C(=O)O (stereo not given)
Assigned category: False

Molecule: CN1CCN(CCCN2c3ccccc3Sc3ccc(C(F)(F)F)cc32)CC1
Assigned category: True

Molecule: C=CC(C)(C)O
Assigned category: False

====

Assay: qHTS assay for small molecule disruptors of the mitochondrial membrane potential - cell viability (AID 720634); also: nearly all actives have a fitted effect of over 20% in size
Settings: HepG2 viability, ATP luminescence (CellTiter-Glo), 1 h; series mostly up to 83.2 µM
Results filed as inconclusive are left out. Activity calls are given as the source filed them. Calls come from the whole dose curve.
Possible outcomes: class 1 for active, class 0 for inactive

Compound: O=C(O)/C=C/C(O)c1ccc(Cl)cc1 (stereo unspecified)
Assigned category: class 0
//
Compound: C=C1[C@H](CO)[C@@H](O)C[C@@H]1n1cnc2c(=O)[nH]c(N)nc21
Assigned category: class 0
//
Compound: COc1cc(NS(C)(=O)=O)ccc1Nc1c2ccccc2nc2ccccc12
Assigned category: class 0
//
Compound: OCl
Assigned category: class 0
//
Compound: CN(C)CCOc1ccc(/C(=C(/CCCl)c2ccccc2)c2ccccc2)cc1
Assigned category: class 0
//
Compound: CS(=O)(=O)c1ccc([C@@H](O)[C@@H](COC(=O)CN)NC(=O)C(Cl)Cl)cc1
Assigned category: class 0
//
Compound: O=C(O)[C@H]1CN(C/C=C/P(=O)(O)O)CCN1
Assigned category: class 0
//
Compound: CN(Cc1ccccc1)Cc1ccccc1
Assigned category: class 0
//
Compound: CC(C)(O/N=C(\C(=O)N[C@@H]1C(=O)N2C(C(=O)[O-])=C(C[n+]3ccccc3)CS[C@H]12)c1csc(N)n1)C(=O)O
Assigned category: class 0
//
Compound: Oc1ccc(Cl)c2c1CCC2
Assigned category: class 0
//
Compound: CSCCC(N)C(=O)O (stereo unspecified)
Assigned category: class 0
//
Compound: NCCCC(=O)O
Assigned category: class 0
//
Compound: Cc1cccc(C)c1NC(=O)C1CCCCN1C (stereo unspecified)
Assigned category: class 0
//
Compound: CC[C@H]1OC(=O)[C@H](C)C(=O)[C@H](C)[C@@H](O[C@@H]2O[C@H](C)C[C@H](N(C)C)[C@H]2O)[C@](C)(OC)C[C@@H](C)C(=O)[C@H](C)[C@H]2N(CCCCn3cnc(-c4cccnc4)c3)C(=O)O[C@]12C
Assigned category: class 0
//
Compound: Cc1cc(CC(C)CC(C)(C)C)n(O)c(=O)c1 (stereo unspecified) (tested in a mixture with another compound)
Assigned category: class 0
//
Compound: O=C(O)CCCC/C=C(\c1ccccc1)c1cccnc1
Assigned category: class 0
//
Compound: O=C[C@H](O)[C@@H](O)[C@@H](O)[C@H](O)CO
Assigned category: class 0
//
Compound: NCC[C@H](O)C(=O)N[C@@H]1C[C@H](N)[C@@H](O[C@H]2O[C@H](CN)CC[C@H]2N)[C@H](O)[C@H]1O[C@H]1O[C@H](CO)[C@@H](O)[C@H](N)[C@H]1O
Assigned category: class 0
//
Compound: CC(C)=CCC/C(C)=C/CC/C(C)=C/CC/C(C)=C/CC1=C(C)C(=O)c2ccccc2C1=O
Assigned category: class 0
//
Compound: O=C(Nc1ccccc1)c1cc(Cl)ccc1O
Assigned category: class 1
//
Compound: CC(C)COC(=O)OCN1C(=O)CN(CCN2CC(=O)N(COC(=O)OCC(C)C)C(=O)C2)CC1=O
Assigned category: class 0

====

Assay: A CellTox Green Cytotoxicity Assay to monitor cytotoxicity in HEK293 cells - 40 hour (AID 1224871); also: nearly all actives have a fitted effect of over 45% in size
Conditions: CellTox Green fluorescence; series mostly up to 76.8 µM
Records with an inconclusive call do not appear. Activity calls are given as the source filed them. Calls come from the whole dose curve; as a rule, active = well fitted activation curve with a large enough effect in the repeat runs; inconclusive = weak or mixed curves; inactive = flat fitted curve, though single readings scatter.
Possible outcomes: true = active, false = inactive

Molecule: CCOC(=O)[C@H](O)[C@@H](O)C(=O)OCC
Assigned category: false

Molecule: [Cl][Dy]([Cl])[Cl]
Assigned category: false

Molecule: Nc1ccc(F)c([N+](=O)[O-])c1
Assigned category: false

Molecule: C=C(C)CCO
Assigned category: false

Molecule: Cc1c[nH]c(=O)[nH]c1=O
Assigned category: false

Molecule: O=C1OCc2ccccc21
Assigned category: false

Molecule: Cc1ccc(C=O)cc1
Assigned category: false

Molecule: CC(C)(C)c1cc(CCC(=O)OCCSCCOC(=O)CCc2cc(C(C)(C)C)c(O)c(C(C)(C)C)c2)cc(C(C)(C)C)c1O
Assigned category: false

Molecule: Cc1cc(Br)ccc1NC(=O)CCl
Assigned category: true

Molecule: CC(C)=NNC(N)=S
Assigned category: false

Molecule: C=C1C(CCl)(CCl)C2(Cl)C(Cl)C(Cl)C1(Cl)C2(Cl)Cl (stereo not drawn)
Assigned category: true

Molecule: C/C(=C\c1ccc(C(=O)O)cc1)c1ccc2c(c1)C(C)(C)CCC2(C)C
Assigned category: false

Molecule: CCc1cccc(C)c1N(C(=O)CS(=O)(=O)O)C(C)COC (stereo not drawn)
Assigned category: false

Molecule: Oc1cccc2c(O)cccc12
Assigned category: false

Molecule: CC(C)(C)c1ccc(OC2CCCCC2O)cc1 (stereo not drawn)
Assigned category: true

Molecule: COc1c(Br)cc(Br)c(C)c1Br
Assigned category: false

Molecule: O=[N+]([O-])c1ccc(O)c2ncccc12
Assigned category: true

Molecule: CCCC(=O)c1cc(O)c(O)cc1O
Assigned category: false

Molecule: Cc1ccc2nc(-c3ccc(N)cc3)sc2c1S(=O)(=O)O
Assigned category: false

Molecule: C/C(=N\[Si](C)(C)C)O[Si](C)(C)C
Assigned category: false

Molecule: CCCCCCCCSCc1cc(C)c(O)c(CSCCCCCCCC)c1
Assigned category: false

Molecule: CC(=O)CC(N)=O
Assigned category: false

Molecule: CCCOC(=O)c1ccc(O)cc1
Assigned category: false

Molecule: CCCCCN=C(N)N/N=C/c1c[nH]c2ccc(OC)cc12
Assigned category: true

Molecule: C=Cc1ccc(O)c(OC)c1
Assigned category: false

Molecule: Brc1cc(Br)cc(Br)c1
Assigned category: false

Molecule: CCN(CC)c1ccc2c(c1)Oc1cc(N(CC)CC)ccc1C21OC(=O)c2ccccc21
Assigned category: true

Molecule: COc1cccc(-c2ccc(/C=C\CN3CCCCCC3)cc2Cl)c1
Assigned category: true

====

Test: A CellTox Green Cytotoxicity Assay to monitor cytotoxicity in HEK293 cells - 24 hour (AID 1224875); also: nearly all actives have a fitted effect of over 45% in size
Conditions: CellTox Green fluorescence; series mostly up to 76.8 µM
Inconclusive results are not listed. Calls of active or inactive are those of the source. The call rests on the fitted dose curve; in most records, active means well fitted activation curve with a large enough effect in the repeat runs; inconclusive means weak or mixed curves; inactive means flat fitted curve, though single readings scatter.
Possible outcomes: active, inactive

Smi: CN(C[C@@H](CC[N+]12CCC(C3CCCCC3)(CC1)CC2)c1ccc(Cl)c(Cl)c1)C(=O)c1cc(C(F)(F)F)cc(C(F)(F)F)c1
Assigned category: active
//
Smi: CN1CC[C@H](c2c(O)cc(O)c3c(=O)cc(-c4ccccc4Cl)oc23)[C@H](O)C1
Assigned category: inactive
//
Smi: Cc1c[nH]c(=O)[nH]c1=O
Assigned category: inactive
//
Smi: C/C=C/C(=O)C1=C(C)C=CCC1(C)C
Assigned category: inactive
//
Smi: CCCOC(=O)c1ccc(O)cc1
Assigned category: inactive
//
Smi: CN(C/C=C/c1ccccc1)Cc1cccc2ccccc12
Assigned category: active
//
Smi: CCNc1nc(NC(C)(C)C)nc(OC)n1
Assigned category: inactive
//
Smi: Cc1ccc(S(=O)(=O)C(I)I)cc1
Assigned category: active
//
Smi: CC/C(=C(/c1ccc(O)cc1)c1ccc(OCCN(C)C)cc1)c1ccccc1
Assigned category: active
//
Smi: Clc1ccc2c(Cl)ccnc2c1
Assigned category: inactive
//
Smi: CCOC(=O)[C@H](C)O
Assigned category: inactive

Value source: PubChem BioAssay (Tox21)
